Data origin, for the record: patent US20220289698A1

Answer each item with its documented melting point.

Prompt: What does the record list as melting point for CCOc1ccc(-c2cccc(C#N)n2)cc1 ?
Response: 109 to 111 °C

Prompt: Given CCOc1ccc(-c2cccc(C(=O)OCc3cncs3)n2)cc1 , state its recorded melting point.
Response: 75 to 80 °C

Prompt: Reported melting point for CCOc1ccc(-c2ccc(O)c(C(=O)OC)n2)cc1 : what is it?
Response: 114 to 116 °C

Prompt: Query: melting point; subject: COCCOCCOc1ccc(-c2cccc(C(=O)OC(C)C)n2)cc1
Response: 45 to 46 °C

###

System: rat ATGL (Rattus norvegicus)
Construct: made in house; host or cells: Expi cells (lysate)
Sequence (P0C548 1-478): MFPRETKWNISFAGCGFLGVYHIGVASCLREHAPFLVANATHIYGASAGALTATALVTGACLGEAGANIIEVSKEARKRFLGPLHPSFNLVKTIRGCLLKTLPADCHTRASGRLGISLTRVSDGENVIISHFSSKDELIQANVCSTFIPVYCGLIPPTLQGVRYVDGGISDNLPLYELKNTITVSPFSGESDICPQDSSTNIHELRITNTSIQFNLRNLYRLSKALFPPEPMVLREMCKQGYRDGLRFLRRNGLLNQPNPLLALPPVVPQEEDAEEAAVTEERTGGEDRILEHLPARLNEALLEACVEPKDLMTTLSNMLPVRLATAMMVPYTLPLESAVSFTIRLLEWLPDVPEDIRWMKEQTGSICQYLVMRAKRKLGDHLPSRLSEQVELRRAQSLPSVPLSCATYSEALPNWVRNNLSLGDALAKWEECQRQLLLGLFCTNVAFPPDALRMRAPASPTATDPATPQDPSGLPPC
Assay Summary: Rat ATGL inhibition, Expi lysates + CGI-58
Format: biochemical
# label = T if inhibition at 50 µM >= 20% else F

Prompt: Could you tell me if the measured inhibition at 50 µM of CCOc1ccc(-c2nc(C(=O)OCc3ccsc3)cs2)cc1 reaches 20% or more?
Response: T

Prompt: Exam item: decide whether the reported inhibition at 50 µM for CCOc1ccc(-c2cccc(C(=O)OCc3cccs3)n2)cc1 is at least 20%.
Response: F

Prompt: Assess whether reported inhibition at 50 µM for COc1cc(C(=O)OC(C)C)nc(-c2ccc(OC(C)C)cc2)c1 sits at 20% or higher.
Response: F

Prompt: Determine whether this compound has inhibition at 50 µM no lower than 20%: CC#CCOC(=O)c1csc(-c2ccc(OCC)cc2)n1
Response: T

Prompt: Confirm if inhibition at 50 µM reported for the compound CCCCOC(=O)c1csc(-c2ccc(OCC)cc2)n1 is 20% or above.
Response: T

Prompt: For this compound, is measured inhibition at 50 µM 20% or higher? C#C[C@H](C)OC(=O)c1csc(-c2ccc(OCC)cc2)n1
Response: F

Prompt: Check the entry CCOc1ccc(-c2nc(C(=O)OCc3ccc(Cl)s3)cs2)cc1 : does inhibition at 50 µM equal or exceed 20%?
Response: T

Prompt: Check the entry CCOc1ccc(-c2nc(C(=O)OCc3ccc(Br)s3)cs2)cc1 : does inhibition at 50 µM equal or exceed 20%?
Response: T

Prompt: Given CCOc1ccc(-c2cccc(C(=O)OCc3ccco3)n2)cc1 , state whether its inhibition at 50 µM is at least 20%.
Response: T

Prompt: Determine whether this compound has inhibition at 50 µM no lower than 20%: C#C[C@@H](C)OC(=O)c1csc(-c2ccc(OCC)cc2)n1
Response: T

Prompt: Entry CCOc1ccc(-c2nc(C(=O)OCc3ccoc3)cs2)cc1 : is its inhibition at 50 µM no less than 20%?
Response: T

Prompt: Is inhibition at 50 µM for CCOc1ccc(-c2nc(C(=O)OCc3cccs3)cs2)cc1 at or above 20%?
Response: F

###

Please go through the items and note down their melting point.

Prompt: // melting point lookup, key: CCCCCCOC(=O)c1cccc(-c2ccc(OCC)cc2)n1
Response: 48 to 51 °C

Prompt: // query melting point value for entry CCOc1ccc(-c2cccc(C(=O)OCCc3ccccc3)n2)cc1
Response: 80 to 82 °C

Prompt: Given the compound CCCOC(=O)c1cccc(-c2ccc(OCC)cc2)n1 , what is its reported melting point?
Response: 80 to 84 °C

Prompt: Entry CCCCCCOc1ccc(-c2cccc(C(=O)OC)n2)cc1 has what melting point?
Response: 68 to 69 °C

Prompt: Would you mind telling me what melting point value was observed for COCc1ccc(-c2cc(OC)cc(C(=O)OC)n2)cc1 ?
Response: 65 to 68 °C

Prompt: Dear colleague, I am looking for the recorded melting point of the following compound: COCc1ccc(-c2cccc(C(=O)OC(C)C)n2)cc1
Response: 55 to 58 °C

Prompt: Name the recorded melting point for C#C[C@@H](C)OC(=O)c1cccc(-c2ccc(CCC)cc2)n1 .
Response: 112 to 113 °C

Prompt: melting point lookup needed for CCOC(=O)c1cccc(-c2ccc(OCCOC)cc2)n1 , thanks.
Response: 89 to 94 °C

Prompt: I am curious: what melting point value has been reported for CCOC(=O)c1csc(-c2ccc(OCc3ccccc3)cc2)n1 ?
Response: 112 to 115 °C

Prompt: Using the record for CCOc1ccc(-c2cc(OC)cc(C(=O)OC(C)C)n2)cc1 , report its melting point.
Response: 79 to 81 °C

Prompt: What does the record list as melting point for CCOc1ccc(-c2cccc(C(=O)OC3CC3)n2)cc1 ?
Response: 114 to 115 °C

Prompt: Quick one: melting point of CCOC(=O)Cc1cccc(-c2ccc(OCC)cc2)n1 ?
Response: 90 to 91 °C

Prompt: What measured melting point goes with C=CCOC(=O)c1cccc(-c2ccc(OCC)cc2)n1 ?
Response: 65 to 70 °C

Prompt: Name the reported melting point value associated with the compound CCOc1ccc(-c2cccc(C(=O)OCCc3ccsc3)n2)cc1
Response: 73 to 76 °C

Prompt: // returns reported melting point for input CCCCCCCOc1ccc(-c2cccc(C(=O)OC(C)C)n2)cc1
Response: 64 to 66 °C

Prompt: Reported melting point for CCOC(=O)c1csc(-c2ccc(C(F)(F)F)cc2)n1 : what is it?
Response: 100 °C

Prompt: Bench note: what melting point did COc1cc(C(=O)OC(C)C)nc(-c2ccc(OC(C)C)cc2)c1 show?
Response: 70 to 71 °C

Prompt: Need melting point of C#C[C@H](C)OC(=O)c1cccc(-c2ccc(CCC)cc2)n1 , thanks.
Response: 112 to 113 °C

Prompt: What value of melting point has been reported for the following compound? CCOCCOc1ccc(-c2cccc(C(=O)OC(C)C)n2)cc1
Response: 46 to 47 °C

Prompt: Which value of melting point has been reported for CCC(C)OC(=O)c1cc(OC)cc(-c2ccc(OC(C)C)cc2)n1 (centres unmarked) in the records?
Response: 68 °C

###

System: murine ATGL (Mus musculus)
Construct: made in house; host or cells: Expi cells (lysate)
Sequence (Q8BJ56 whole entry): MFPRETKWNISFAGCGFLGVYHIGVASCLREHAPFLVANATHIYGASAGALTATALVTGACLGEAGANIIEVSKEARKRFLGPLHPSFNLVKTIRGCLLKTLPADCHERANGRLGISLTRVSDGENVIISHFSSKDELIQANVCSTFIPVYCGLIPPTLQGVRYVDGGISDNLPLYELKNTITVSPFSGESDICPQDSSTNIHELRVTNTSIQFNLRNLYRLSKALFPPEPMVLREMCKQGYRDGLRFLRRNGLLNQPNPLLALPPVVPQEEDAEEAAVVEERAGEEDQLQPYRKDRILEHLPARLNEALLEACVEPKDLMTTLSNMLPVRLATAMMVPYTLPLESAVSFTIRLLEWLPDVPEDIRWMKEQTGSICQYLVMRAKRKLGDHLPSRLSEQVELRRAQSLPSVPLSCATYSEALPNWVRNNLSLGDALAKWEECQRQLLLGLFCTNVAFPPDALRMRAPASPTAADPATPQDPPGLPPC
Assay Summary: TG hydrolase activity, Expi lysates expressing mouse ATGL + CGI-58, radiolabelled triolein
Type: biochemical
Condition Label: 50 μM compound; Example 237; read-out: Inhibition of murine ATGL at 50 μM − mean [%]
Property Label: inhibition at 50 µM (%)
Answer format: numeric, % implied, no suffix.

Prompt: Form field - read-out: inhibition at 50 µM; system: murine ATGL (Mus musculus); submitted item: CCS(=O)(=O)c1ccc(-c2cccc(C(=O)OC(C)C)n2)cc1
Response: 0

Prompt: So what inhibition at 50 µM did C#CCOC(=O)c1cccc(-c2ccc(OCC)cc2)n1 get with murine ATGL (Mus musculus)?
Response: 31.8

Prompt: Record CCOC(=O)c1cccc(-c2ccc(C#N)cc2)n1 : what is its inhibition at 50 µM with murine ATGL (Mus musculus)?
Response: 0

Prompt: Please provide the recorded inhibition at 50 µM for C#CC(C)OC(=O)c1cccc(-c2ccc(CCC)cc2)n1 (centres unmarked) , tested on murine ATGL (Mus musculus).
Response: 0

Prompt: So what inhibition at 50 µM did CCOc1ccc(-c2nc(C(=O)OC3CCCCC3)cs2)cc1 get with murine ATGL (Mus musculus)?
Response: 0

Prompt: Form entry - test system: murine ATGL (Mus musculus); read-out: inhibition at 50 µM; compound: CCOC(=O)c1nc(-c2ccc(OCC)cc2)sc1C
Response: 33.7

Prompt: Any idea what inhibition at 50 µM came out for CON(C)C(=O)c1ccc(-c2cccc(C(=O)OC(C)C)n2)cc1 on murine ATGL (Mus musculus)?
Response: 0

Prompt: Tell me reported inhibition at 50 µM for COCCOc1ccc(-c2cccc(C(=O)OC(C)C)n2)cc1 , tested with murine ATGL (Mus musculus).
Response: 1.8

Prompt: Item CCCCCCCOc1ccc(-c2cccc(C(=O)OC(C)C)n2)cc1 with murine ATGL (Mus musculus) - inhibition at 50 µM?
Response: 0

Prompt: murine ATGL (Mus musculus) / inhibition at 50 µM / COc1cc(C(=O)OC(C)C)nc(-c2ccc(C(F)(F)F)cc2)c1 : value?
Response: 0

Prompt: Request: inhibition at 50 µM, test system murine ATGL (Mus musculus), entry CCOc1ccc(-c2nc(C(=O)OCc3cccs3)cs2)cc1
Response: 74

Prompt: inhibition at 50 µM of CCOc1ccc(-c2nc(C(=O)OCC(F)(F)F)cs2)cc1 on murine ATGL (Mus musculus)?
Response: 0

Prompt: Return inhibition at 50 µM measured with murine ATGL (Mus musculus) given this compound: CCOC(=O)c1cccc(-c2ccc(OCCOC)cc2)n1
Response: 9.1

Prompt: murine ATGL (Mus musculus) / inhibition at 50 µM / CCOCCOc1ccc(-c2cccc(C(=O)OC(C)C)n2)cc1 : value?
Response: 18.1

Prompt: Given the entry CCOc1ccc(-c2cccc(C(=O)OC(C)C)n2)cc1 , what inhibition at 50 µM was observed with murine ATGL (Mus musculus)?
Response: 0

Prompt: Form entry - test system: murine ATGL (Mus musculus); read-out: inhibition at 50 µM; compound: CCCOc1ccc(-c2cccc(C(=O)OC(C)C)n2)cc1
Response: 0

Prompt: Which measured inhibition at 50 µM belongs to CCOC(=O)c1csc(-c2ccc(OCC(F)(F)F)cc2)n1 , tested on murine ATGL (Mus musculus)?
Response: 8

Prompt: Give recorded inhibition at 50 µM with murine ATGL (Mus musculus) for the following compound: CCCc1ccc(-c2cc(OC)cc(C(=O)OC(C)C)n2)cc1
Response: 0

Prompt: // lookup inhibition at 50 µM | system=murine ATGL (Mus musculus) | key= CCOc1ccc(-c2nc(C(=O)OC(C)C)cs2)cc1
Response: 10.6

Prompt: murine ATGL (Mus musculus) / inhibition at 50 µM / CCOc1ccc(-c2nc(C(=O)OC(CF)CF)cs2)cc1 : value?
Response: 5.8
